All figures here come from ChEMBL document CHEMBL1125639.

System: Rattus norvegicus
EXPERIMENTAL PROTOCOL: Biodistribution of compound in rats kidney after an intravenous injection was measured at 1 hr
Type: ADME, organism-based
CONDITION PARAMETERS: in vivo
PROPERTY MEASURED: Biodistribution
// response body must contain only the number

Give its Biodistribution value. Item: CN1CCc2cc(Cl)c(O)cc2[C@@H](c2cccc(I)c2)C1
0.883

###

EXPERIMENTAL PROTOCOL: Biodistribution ratio measured as the ratio of compound present in brain to that of blood at 4 hr after intravenous injection
Assay type: ADME, organism-based
CONDITION PARAMETERS: rat, brain / blood
PROPERTY MEASURED: Kp at 4 h
// response body must contain only the number

Give its Kp at 4 h value. Item: CN1CCc2cc(Cl)c(O)cc2[C@@H](c2cccc(I)c2)C1
5.23
